assay: Inhibition of Bacillus anthracis Protective antigen-mediated cytotoxicity in HT1080 cells compound co-treated for 5 hrs with antigen measured after 48 hrs by MTT assay in presence of FP59
Observation type: EC50 (nM)

# Molecule smiles, Observation type, Obs value
records = [
    ("NC(=O)c1ccccc1NC(=O)c1ccc(C(=O)Nc2ccccc2C(N)=O)cc1", "EC50", 1000),
    ("Oc1ccccc1/C=N/c1ccc(Cc2ccc(/N=C/c3ccccc3O)c(O)c2)cc1O", "EC50", 1000),
]

====

test: Inhibition of Bacillus anthracis Protective antigen-mediated cytotoxicity in RAW264.7 cells compound co-treated for 5 hrs with antigen by MTT assay in presence of lethal factor
pEC50: −log10 of the molar value.
Observation type: pEC50

# Molecule smiles, Obs value
data = [
    ("Oc1ccccc1/C=N/c1ccc(Cc2ccc(/N=C/c3ccccc3O)c(O)c2)cc1O", 5.52),
    ("NC(=O)c1ccccc1NC(=O)c1ccc(C(=O)Nc2ccccc2C(N)=O)cc1", 5.52),
]
